system: DMS 114 small cell lung; assay: NCI tumour cell line growth inhibition, 48 h
quantity.kind: TGI

Which TGI reading was recorded for the compound CC1(C=O)C(=O)CCC2(C)C3CC(=O)OC3CCC12 (stereo not given) ?
> 100 µM

Which TGI reading was recorded for the compound `S=c1nc(COc2ccc(Cl)cc2)[nH][nH]1` ?
> 100 µM

Which TGI reading was recorded for the compound `Cn1c2c(c3ccccc31)CCN(CCCN1CCN(c3cccc(Cl)c3)CC1)C2=O` ?
44.4 µM

Which TGI reading was recorded for the compound CCC1(CN(C)C)CC/C(=C\c2ccc(OC)cc2)C1=O (stereo not given) ?
> 100 µM

Which TGI reading was recorded for the compound `NC(N)=NS(=O)(=O)c1ccc(NC(=O)c2cccc3cc4ccccc4nc23)cc1` ?
> 100 µM
